assay: In vivo exposure after single oral dosing; settings: male, Swiss outbred, mouse, plasma, 50 mg/kg
readoutKind: Cmax (µM)
Write the answer as a number in µM, unit excluded.

Exercise: Please look up its Cmax: CC(C)(C)CC(=O)NC(C(=O)NO)c1ccc(-c2cc(F)c(F)c(F)c2)cc1 (stereo not shown)
Solution: 5.2

----------
test: Metabolic stability in cryopreserved hepatocytes; format: in vitro ADME; settings: pH 7.4; human cryopreserved hepatocytes; read-out: in vitro hepatocyte CLint
readoutKind: hepatocyte CLint at 1 µM

Exercise: Please look up its hepatocyte CLint at 1 µM: CC(C)(C)CC(=O)NC(C(=O)NO)c1ccc(-c2cc(F)c(F)c(F)c2)cc1 (stereo not shown)
Solution: 2 µL/min/1e6 cells
